Data origin: patent US10537626B2

- Test Target: HLA-A*24:02 molecule (Homo sapiens, UniProt P04439, D101N/D140Y/D185E/E176V/E190D/F33S/G103R/G107R/I119L/I121M/I306V/K335N/L105A/L180Q/L300P/N151K/N90K/Q86E/Q94H/R106L/R138H/R89G/T104I/T345S/V100E/W191G/Y123F)
- Run Description: Binding experiment of peptide to HLA-A*24:02 molecule (C1R-A24 cells, flow cytometry)
- Settings: C1R-A24 cells, on ice 4 hours; negative values as printed (apparently log Kd)
Ends that are not written are not given here.
Test Readout: Binding Experiment Data To A*24:02

# Sequence Entry, Observed Value
measured = [
    ("GVPQIEVTF [SEQ ID NO: 1]", "−6.451"),
    ("VLVGGSTRI [SEQ ID NO: 5]", "−6.173"),
    ("FYPEEISSM [SEQ ID NO: 3]", "−7.664"),
    ("YGAAVQAAI [SEQ ID NO: 7]", "−5.502"),
    ("AMTKDNNLL [SEQ ID NO: 9]", "−5.492"),
    ("SVTNAVITV [SEQ ID NO: 15]", "−4.37"),
]
